Source of measurements: the METLIN SMRT retention time set (Domingo-Almenara et al. 2019)

Here, each record is paired with measured RP-LC retention time data.
- assayExplanation: gradient 5% acetonitrile 3 min, to 50% in 2 min, to 85% in 15 min, held 3 min, 100 µL/min
- particulars: column: Zorbax Extend-C18 2.1 x 50 mm; eluents: water / acetonitrile, 0.1% formic acid

- compound: "COC(=O)c1ccccc1NC(=O)c1c(O)c2cccnc2n(-c2ccc(F)cc2)c1=O"
  RP-LC retention time [s]: 1180
- compound: "COc1ccc(S(=O)(=O)Nc2cc3sc(=O)oc3c3ccccc23)cc1"
  RP-LC retention time [s]: 894
- compound: "COc1cccc(-c2ccc(=O)n(Cc3nc(-c4cccc(Cl)c4)no3)n2)c1"
  RP-LC retention time [s]: 1080
- compound: "Cc1ccc(C)c(N2CCN(CC(O)c3ccc4c(c3)OCO4)CC2)c1 (centres undefined)"
  RP-LC retention time [s]: 732
- compound: "O=C(Nc1cc(-c2ccccn2)no1)c1cccc(F)c1"
  RP-LC retention time [s]: 791
- compound: "CCCn1cc(C(=O)Nc2cc(OC)ccc2OC)c(=O)c2ccc(C)nc21"
  RP-LC retention time [s]: 1090
- compound: "CC1=C(c2ccc(C)c(C)c2)S(=O)(=O)N=C1N1CCCN(C(=O)c2ccoc2)CC1"
  RP-LC retention time [s]: 764
- compound: "CN(C)C(CNC(=O)c1cc(=O)c2cc(Cl)ccc2o1)c1cccs1 (centres undefined)"
  RP-LC retention time [s]: 631
- compound: "Cc1c(C(=O)N2CCCC2)cnn1-c1cc(-c2nc(C3CC3)no2)ccn1"
  RP-LC retention time [s]: 864
- compound: "CCNC(=O)c1nc(C(=O)NCc2ccc(C)cc2)cs1"
  RP-LC retention time [s]: 811
- compound: "O=C1CCCc2cc(S(=O)(=O)N3CCC(C(=O)N4CCc5ccccc54)CC3)ccc2N1"
  RP-LC retention time [s]: 802
- compound: "CS(=O)(=O)N1CC(n2cc(C(=O)N3CCOCC3)nn2)C1"
  RP-LC retention time [s]: 573
- compound: "CSc1ccccc1CN1CCC(CNC(=O)c2ccco2)CC1"
  RP-LC retention time [s]: 548
- compound: "Cc1ccc(F)cc1NC(=O)Cn1cnc2nc(N3CCCC(C(=O)NC4CC4)C3)sc2c1=O (centres undefined)"
  RP-LC retention time [s]: 686
- compound: "C[C@@H]1CC[C@H]2[C@H](C)[C@H]3CC[C@@]4(O)[C@@H]5CC(=O)[C@H]6CC(=O)CC[C@]6(C)[C@H]5C[C@H]4[C@@H]3CN2C1"
  RP-LC retention time [s]: 636
- compound: "CC(=O)c1ccc(NS(=O)(=O)c2ccccc2[N+](=O)[O-])cc1"
  RP-LC retention time [s]: 729
- compound: "O=C(c1ccc2c(=O)n(-c3ccccc3)c(N3CCCC3)nc2c1)N1CCN(c2ccccn2)CC1"
  RP-LC retention time [s]: 617
- compound: "CC(C)CN1CCN(C(=O)C2CC(=O)N(CCc3ccccc3)C2)CC1 (centres undefined)"
  RP-LC retention time [s]: 580
- compound: "CN(C)CC(=O)N1CCC(Oc2nccnc2N(C)C)C1 (centres undefined)"
  RP-LC retention time [s]: 539
